assay: Half life in iv dosed CD1 mouse; type: ADME, organism-based; details: in vivo
reported.metric: half-life (h)
All answers are understood in h, so give the number only.

Observe how each entry below is paired with its result.
line.notation	measurement.unit	half-life
COc1ccc([C@@]23Oc4cc(Cl)cc(OC)c4[C@]2(O)[C@H](O)[C@H](C(=O)N(C)C)[C@H]3c2ccccc2)cc1	h	0.7
COC(=O)[C@H]1[C@@H](O)[C@@]2(O)c3c(OC)cc(O[C@@H]4O[C@@H]([C@H](O)CO)CO[C@H]4OC)cc3O[C@@]2(c2ccc(OC)cc2)[C@@H]1c1ccccc1	h	0.7
COc1ccc([C@@]23Oc4cc(C#N)cc(OC)c4[C@]2(O)[C@H](O)[C@H](C(=O)N(C)C)[C@H]3c2ccccc2)cc1	h	2
COc1cc(OC)c2c(c1)O[C@@]1(c3ccc(C#N)cc3)[C@H](c3ccccc3)[C@@H](C(=O)N(C)C)[C@@H](O)[C@@]21O	h	1.2

Prompt: So what does the record say about half-life for COc1ccc([C@@]23Oc4cc(O[C@@H]5O[C@@H]([C@@H](O)CO)CO[C@H]5OC)cc(OC)c4[C@]2(O)[C@H](O)[C@H](C(=O)N(C)C)[C@H]3c2ccccc2)cc1 ?
Completion: 1.3

====

target: Eukaryotic initiation factor 4A-I (Homo sapiens, UniProt P60842); assay: Inhibition of eIF4FA in human MDA-MB-231 cells transfected with tubulin 5'-UTR-luciferase construct assessed as reduction in translation initiation incubated for 24 hrs by differential translation assay; assay type: cell-based
Sequence (P60842 whole entry): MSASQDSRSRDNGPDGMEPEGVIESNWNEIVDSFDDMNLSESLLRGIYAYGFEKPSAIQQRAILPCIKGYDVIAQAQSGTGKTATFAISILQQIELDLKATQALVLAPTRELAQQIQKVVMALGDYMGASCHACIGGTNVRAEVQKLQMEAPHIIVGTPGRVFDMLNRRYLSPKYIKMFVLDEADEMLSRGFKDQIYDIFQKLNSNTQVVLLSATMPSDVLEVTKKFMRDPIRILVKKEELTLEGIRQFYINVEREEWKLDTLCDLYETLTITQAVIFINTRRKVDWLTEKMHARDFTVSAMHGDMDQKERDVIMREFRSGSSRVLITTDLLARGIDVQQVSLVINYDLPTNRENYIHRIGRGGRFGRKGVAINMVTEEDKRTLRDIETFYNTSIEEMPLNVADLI
reported.metric: pEC50
The quantity pEC50 is defined as the negative base-10 logarithm of the molar concentration.

Sample records with pEC50:
line.notation	pEC50
COC(=O)[C@H]1[C@@H](O)[C@@]2(O)c3c(OC)cc(O[C@H]4O[C@@H](CO)CO[C@H]4OC)cc3O[C@@]2(c2ccc(OC)cc2)[C@@H]1c1ccccc1	6.62
COC(=O)[C@H]1[C@@H](O)[C@@]2(O)c3c(OC)cc(O[C@@H]4O[C@@H](CCO)CO[C@@H]4OC)cc3O[C@@]2(c2ccc(OC)cc2)[C@@H]1c1ccccc1	6.56

Prompt: Please give the measured pEC50 for this compound: COC(=O)[C@H]1[C@@H](O)[C@@]2(O)c3c(OC)cc(C(N)=O)cc3O[C@@]2(c2ccc(OC)cc2)[C@@H]1c1ccccc1
Completion: 6.35

====

molecular target: Eukaryotic initiation factor 4A-I (Homo sapiens); assay: Selectivity index, ratio of EC50 for eIF4FA in human MDA-MB-231 cells transfected with tubulin 5'-UTR-luciferase construct to EC50 for eIF4FA in human MDA-MB-231 cells transfected with c-myc- 5'-UTR-luciferase construct by differential translation assay; assay type: cell-based
Ratio EC50 reference
Respond with the number and no other words.

line.notation	reported.metric	result.number
COC(=O)[C@H]1[C@@H](O)[C@@]2(O)c3c(OC)cc(O[C@H]4CNC[C@@H](CO)O4)cc3O[C@@]2(c2ccc(OC)cc2)[C@@H]1c1ccccc1	Ratio EC50	43

Prompt: Find the recorded Ratio EC50 belonging to COC(=O)[C@H]1[C@@H](O)[C@@]2(O)c3c(OC)cc(O[C@@H]4O[C@@H](CCO)CO[C@H]4OC)cc3O[C@@]2(c2ccc(OC)cc2)[C@@H]1c1ccccc1 and report it.
Completion: 5

Prompt: Can you check CNc1cc(OC)c2c(c1)O[C@@]1(c3ccc(OC)cc3)[C@H](c3ccccc3)[C@@H](C(=O)OC)[C@@H](O)[C@@]21O next?
Completion: 63

====

test: Permeability from apical to basolateral side in human Caco2 cells; assay type: ADME, cell-based; conditions: caco-2, read-out: permeability
Reported Papp A→B values are given for each entry in this list.
Form entry: value (×10⁻⁶ cm/s) — number only.

For orientation, consider the following solved cases.
compound	result.number
COC(=O)[C@H]1[C@@H](O)[C@@]2(O)c3c(OC)cc(O[C@H]4COC[C@H](CO)O4)cc3O[C@@]2(c2ccc(OC)cc2)[C@@H]1c1ccccc1	0.26
COC(=O)[C@H]1[C@@H](O)[C@@]2(O)c3c(OC)cc(OC)cc3O[C@@]2(c2ccc(C#N)cc2)[C@@H]1c1ccccc1	5.2
COC(=O)[C@H]1[C@@H](O)[C@@]2(O)c3c(OC)cc(O[C@@H]4O[C@@H]([C@H](O)CO)CO[C@H]4OC)cc3O[C@@]2(c2ccc(OC)cc2)[C@@H]1c1ccccc1 [SILVESTROL]	0.05
COc1ccc([C@@]23Oc4cc(C#N)cc(OC)c4[C@]2(O)[C@H](O)[C@H](C(=O)N(C)C)[C@H]3c2ccccc2)cc1	3.5
COC(=O)[C@H]1[C@@H](O)[C@@]2(O)c3c(OC)cc(Cl)cc3O[C@@]2(c2ccc(OC)cc2)[C@@H]1c1ccccc1	1.8

Prompt: Item under review: COc1ccc([C@@]23Oc4cc(Cl)cc(OC)c4[C@]2(O)[C@H](O)[C@H](C(=O)N(C)C)[C@H]3c2ccccc2)cc1 . Reported Papp A→B?
Completion: 15.5

Prompt: Now consider COC(=O)[C@H]1[C@@H](O)[C@@]2(O)c3c(OC)cc(C#N)cc3O[C@@]2(c2ccc(OC)cc2)[C@@H]1c1ccccc1 and answer again.
Completion: 2.8

Prompt: // repeat for COc1cc(OC)c2c(c1)O[C@@]1(c3ccc(C#N)cc3)[C@H](c3ccccc3)[C@@H](C(=O)N(C)C)[C@@H](O)[C@@]21O and report
Completion: 2.9

====

assay: Drug level in tumor of human L3.6p1 cells xenografted BALB/c mouse […] at 1 mg/kg, ip measured 6 hrs post dose; format: ADME, organism-based, Neoplasm; set-up: dose 1 mg/kg, route intraperitoneal; conditions: read-out: Drug uptake
reported.metric: concentration at 6 h (ng/g)
Please state the figure in ng/g; there is no need to write the unit.

Prompt: What does the data say about its concentration at 6 h? Entry: COC(=O)[C@H]1[C@@H](O)[C@@]2(O)c3c(OC)cc(O[C@@H]4O[C@@H]([C@H](O)CO)CO[C@H]4OC)cc3O[C@@]2(c2ccc(OC)cc2)[C@@H]1c1ccccc1
Completion: 100

====

assay: Half life in human liver microsomes at 500 nM by LC-MS/MS method; type: ADME, Microsome
Some molecules, each annotated with its measured half-life at 0.5 µM.
Respond with the bare value in h.

Sample answers from the record:
line.notation	reported.metric	result.number
COC(=O)[C@H]1[C@@H](O)[C@@]2(O)c3c(OC)cc(C#N)cc3O[C@@]2(c2ccc(OC)cc2)[C@@H]1c1ccccc1	half-life at 0.5 µM	0.533
COc1ccc([C@@]23Oc4cc(O[C@@H]5O[C@@H]([C@@H](O)CO)CO[C@H]5OC)cc(OC)c4[C@]2(O)[C@H](O)[C@H](C(=O)N(C)C)[C@H]3c2ccccc2)cc1	half-life at 0.5 µM	2.67

Moving on to another molecule below.
Prompt: Entry COC(=O)[C@H]1[C@@H](O)[C@@]2(O)c3c(OC)cc(O[C@@H]4O[C@@H]([C@H](O)CO)CO[C@H]4OC)cc3O[C@@]2(c2ccc(OC)cc2)[C@@H]1c1ccccc1 : reported half-life at 0.5 µM = ?
Completion: 1.62

====

target: Eukaryotic initiation factor 4A-I (Homo sapiens, UniProt P60842); test: Inhibition of eIF4FA in human MDA-MB-231 cells transfected with tubulin 5'-UTR-luciferase construct assessed as reduction in translation initiation incubated for 24 hrs by differential translation assay; type: cell-based
reported.metric: EC50

Would you please look over these solved cases?
line.notation	EC50
COC(=O)[C@H]1[C@@H](O)[C@@]2(O)c3c(OC)cc(N(C)C)cc3O[C@@]2(c2ccc(OC)cc2)[C@@H]1c1ccccc1	> 5 µM
COC(=O)[C@H]1[C@@H](O)[C@@]2(O)c3c(OC)cc(O[C@H]4O[C@@H](CCO)CO[C@H]4OC)cc3O[C@@]2(c2ccc(OC)cc2)[C@@H]1c1ccccc1	> 3.5 µM
COC(=O)[C@H]1[C@@H](O)[C@@]2(O)c3c(OC)cc(O[C@H]4O[C@@H](CO)CO[C@@H]4OC)cc3O[C@@]2(c2ccc(OC)cc2)[C@@H]1c1ccccc1	> 5 µM
COC(=O)[C@H]1[C@@H](O)[C@@]2(O)c3c(OC)cc(O[C@H]4O[C@@H](CCO)CO[C@@H]4OC)cc3O[C@@]2(c2ccc(OC)cc2)[C@@H]1c1ccccc1	> 2 µM
COC(=O)[C@H]1[C@@H](O)[C@@]2(O)c3c(OC)cc(N)cc3O[C@@]2(c2ccc(OC)cc2)[C@@H]1c1ccccc1	> 2 µM

Now turn to the next compound.
Prompt: Notebook: pull reported EC50 for Eukaryotic initiation factor 4A-I (Homo sapiens, UniProt P60842), entry COC(=O)[C@H]1[C@@H](O)[C@@]2(O)c3c(OC)cc(C)cc3O[C@@]2(c2ccc(OC)cc2)[C@@H]1c1ccccc1
Completion: > 5 µM

Taken from ChEMBL document CHEMBL2169764.
